Measured GI50 of individual entries
system: KM-20L2; experiment: NCI tumour cell line growth inhibition, 48 h
Activity calls are given as the source filed them. Cut-off read from the data, not from the text of the source: active = GI50 up to about 1.1 µM and inactive = higher.

Solved entries (count: 5):
CC1CCCc2c1c1ccc3c(O)cccc3c1oc2=O (stereo unspecified): > 100 µM (inactive)
CC(C)(C)C(=O)C(c1ccc(-c2cscn2)cc1)c1ccc(-c2cscn2)cc1: > 100 µM (inactive)
O=C1C2Nc3ccccc3SC2C(=O)N1c1ccc(Br)cc1 (stereo unspecified): 33.2 µM (inactive)
COc1ccc(/C=[N+](\[O-])[C@H](COCc2ccccc2)c2ccccc2)cc1: > 100 µM (inactive)
Cc1cc(C(=O)N2CCN(Cc3ccccc3)CC2)c(C)o1: > 100 µM (inactive)

// fetch GI50 given entry COc1cc(C(C)c2cc3c(cc2OCCO)OCO3)cc(OC)c1OC (stereo unspecified) 1.43 µM (inactive)

----------
test system: HCC 2998; assay: NCI tumour cell line growth inhibition, 48 h
The source made the active and inactive calls. Cut-off read from the data, not from the text of the source: active = GI50 up to about 1.1 µM and inactive = higher.
Valid outcomes are listed here; reply with one: TRUE (active), FALSE (inactive)

For this molecule, state the assay outcome: C/C(=C\c1ccc(Cl)cc1)C(C)(C)C(=O)O FALSE

Lab log entry: COc1ccc2[nH]c3c(C)c4ccnc(NCCCN(C)CCCN)c4c(C)c3c2c1 — outcome as called in the assay? TRUE

Check the results log: what was the call for CCOC(=O)CCC(C(=O)OCC)n1nc2ccc(Nc3c(C)[n+]([O-])c4ccc(Cl)cc4[n+]3[O-])cc2n1 (centres undefined) ? FALSE

----------
tested on: Malme-3M; assay: NCI tumour cell line growth inhibition, 48 h
The source made the active and inactive calls. Cut-off read from the data, not from the text of the source: active = GI50 up to about 1.1 µM and inactive = higher.
Observation type: GI50

# annotated cases, reported GI50 shown
CC(=O)/N=C1/N(/C=C2\C(=O)Oc3ccccc3C2=O)C(=O)/C(=C/c2ccc(Cl)cc2Cl)N1C: > 100 µM (inactive)
N#Cc1c(NC(=S)Nc2ccc(Cl)cc2)sc2c1CCN(N1CCc3c(sc(NC(=S)Nc4ccc(Cl)cc4)c3C#N)C1)C2: 55.2 µM (inactive)
Cn1c2ccccc2c2ccc3c(c21)C(=O)C=CC3=O: 3.39 µM (inactive)
c1cnc(N2CCN(Cc3c[nH]c4ccccc34)CC2)nc1: 43.4 µM (inactive)
COc1cc(/C=N/c2nncs2)ccc1O: > 100 µM (inactive)

API: the following record is the query input.
Identify measured GI50 associated with COc1ccc(N(C(=O)NCCO)c2ccccc2)cc1 > 100 µM (inactive)

----------
# GI50 per entry
system: UACC-257; test: NCI tumour cell line growth inhibition, 48 h
Calls of active or inactive are those of the source. Cut-off read from the data, not from the text of the source: active = GI50 up to about 1.1 µM and inactive = higher.

Use these answered entries as a reference point.
COc1cc([C@@H]2c3cc4c(cc3[C@@H](NC(=O)c3cccc(F)c3)C3COC(=O)[C@@H]32)OCO4)cc(OC)c1O (stereo not given in full): 7.19 µM (inactive)
NCCNc1nc(N2CCCC2)c2nc(Cl)c(NCc3ccccc3)nc2n1: 1.9 µM (inactive)
O=C1CSC2=NC3=C(CSC/C3=C\c3ccccc3)C(c3ccccc3)N12 (stereo not given): > 100 µM (inactive)

Check the records and state GI50 for CCOC(=O)c1cc(C)nc2c1c(=O)n(-c1ccccc1)c(=O)n2CCCCN1CCN(c2ncccn2)CC1 52.4 µM (inactive)

Input COc1cccc(NC(=O)CC(=O)N2N=C(N(CCC#N)c3ccc(Cl)cc3)CC2c2ccccc2)c1 (stereo not given) , output reported GI50. > 100 µM (inactive)

----------
system: RXF 631; test: NCI tumour cell line growth inhibition, 48 h
Active and inactive are the calls of the source. Rule as the data show it: active = GI50 up to about 1.1 µM and inactive = higher.
# valid calls are True (active), False (inactive); nothing else

CCCCN1C(=O)C2c3[nH]c4ccccc4c3C3CCCCC3C2C1=O.CCCCN1C(=O)C2c3[nH]c4ccccc4c3[C@@H]3CCCCC3C2C1=O (stereo unspecified): False
Cc1cc(O)c2c(c1)C(O)(c1ccc3c(c1O)C(=O)c1c(O)cc(C)cc1C3(O)C1OC(CO)C(O)C(O)C1O)c1cccc(O)c1C2=O (stereo unspecified): False

We now examine a further compound.
What did the test return for COc1cc2c(cc1OC)-c1c(cc(OC)c(OC)c1OC)C2=O ? False

----------
Reported GI50 values for a set of molecules
system: HL-60; assay: NCI tumour cell line growth inhibition, 48 h
Calls of active or inactive are those of the source. Rule as the data show it: active = GI50 up to about 1.1 µM and inactive = higher.

Example molecules with recorded GI50:
COC(=O)c1sc2nc(Nc3ccccc3)/c(=N\c3ccccc3)sc2c1C: > 100 µM (inactive)
CC(C(=O)[O-])S(=O)(=O)O.CCc1c2cc(OC)c(OC)cc2cc2c3cc(OC)c(OC)cc3cc[n+]12: 20.8 µM (inactive)
CCOC(=O)C(CC#Cc1ccc(C#CCC(NC(C)=O)C(=O)OCC)cc1)NC(C)=O (stereo not given): > 100 µM (inactive)
c1ccc(/N=C(\N2CCOCC2)N(CCN2CCOCC2)c2ccccc2)cc1: > 10 µM (inactive)
CC1CCC2(C(=O)O)CCC3(C)C(=CCC4C5(C)CC(O)C(O)C(C)(CO)C5C(O)CC43C)C2C1C (stereo not given): 20.2 µM (inactive)
CCOC(=O)NC(=O)c1cn(C2CCCCC2)c(=O)[nH]c1=O: 7.53 µM (inactive)
COC(=O)C1(O)c2ccccc2N=C2C1CCN2C (stereo not given): > 100 µM (inactive)
COc1cc(O)c2c(c1)O[C@@H]1OCC[C@H]21: > 100 µM (inactive)
CCOC(=O)c1cc(C)nc2c1c(=O)n(-c1ccccc1)c(=O)n2CCCCN1CCN(c2ncccn2)CC1: 25.4 µM (inactive)
O=c1c2cc(-c3ccccc3)cnc2sn1-c1ccc([N+](=O)[O-])cc1: 37.8 µM (inactive)

Give recorded GI50. CCCCN1C(=O)C2c3[nH]c4ccccc4c3C3CCCCC3C2C1=O.CCCCN1C(=O)C2c3[nH]c4ccccc4c3[C@@H]3CCCCC3C2C1=O (stereo not given) 13.6 µM (inactive)

State its GI50: COC(=O)C1CC(OC(C)=O)C=C2C(=O)CCC21 (stereo not given) 16.1 µM (inactive)

----------
test system: NCI-H460; assay: NCI tumour cell line growth inhibition, 48 h
Activity calls are given as the source filed them. Rule as the data show it: active = GI50 up to about 1.1 µM and inactive = higher.
# GI50 per entry

COC(=O)c1c(C)cccc1/C=C1\Cc2ccc(C)c(C)c2C1=O: > 100 µM (inactive)
CC1(C)CCc2c(cc3c(c2O)CCC(C)(C)O3)O1: 57 µM (inactive)
c1ccc2sc(SSSc3nc4ccccc4s3)nc2c1: 44.7 µM (inactive)
COc1ccc2oc(-c3cc4cc(OC)ccc4o3)cc2c1: > 100 µM (inactive)
NC(CCSCC(F)F)C(=O)O (stereo not drawn): > 100 µM (inactive)
C[C@H](CSC(=O)c1ccccc1)C(=O)N1c2ccccc2C[C@H]1C(=O)O: > 10 µM (inactive)
N#CC1(C#N)C(c2ccccc2)C=CC12OCCCO2 (stereo not drawn): 42 µM (inactive)
c1ccc(CN2COc3c(ccc4c5c(ccc34)CN(Cc3ccccc3)CO5)C2)cc1: > 100 µM (inactive)

Jot down GI50 (NCI-H460) of CCO/S(=N/S(=O)(=O)c1ccccc1)c1ccccc1[N+](=O)[O-] (stereo not drawn) . > 100 µM (inactive)

Name the value of GI50 reported for COc1ccc(N2C(=O)C3c4[nH]c5ccc(OCc6ccccc6)cc5c4C4CCC(C(C)(C)C)CC4C3C2=O)cc1 (stereo not drawn) when tested on NCI-H460. > 100 µM (inactive)

Report value only: GI50, NCI-H460, CC(C)=CCc1c(O)c(CC=C(C)C)c2oc3c(c(=O)c2c1O)C(C=C(C)C)Oc1cc(O)ccc1-3 (stereo not drawn) 4.49 µM (inactive)

Quote GI50 with test system NCI-H460 for COc1cc(O)c2c(c1)O[C@@H]1OCC[C@H]21 > 100 µM (inactive)

Enter recorded GI50 with NCI-H460 for Clc1cc2nc[nH]c2cc1Cl here. > 100 µM (inactive)

Tell me GI50 of CCCCC(C(=O)CCC(=O)Nc1ccc(Cl)cc1)C(=O)C(C)C (stereo not drawn) when tested on NCI-H460. > 100 µM (inactive)

----------
Measured GI50, listed per entry for reference.
test system: LXFL 529; experiment: NCI tumour cell line growth inhibition, 48 h
Activity calls are given as the source filed them. No stated cut-off is given here; in the data, active = GI50 up to about 1.1 µM and inactive = higher.

CCCCCCCCC[C@@H]1C[C@H](O)[C@H](Cc2ccccc2)N1C(=O)OC(C)(C)C: 17.2 µM (inactive)
CCCCCCCCCCCCCC(=O)CSCCNC(=O)CCNC(=O)[C@@H](O)C(C)(C)COP(=O)(O)OP(=O)(O)OCC1OC(n2cnc3c(N)ncnc32)C(O)C1OP(=O)(O)O (stereo partly drawn): 17.5 µM (inactive)
Cc1cc2c(=O)cc(-c3ccc(C(=O)O)cc3)oc2c(C(N)=O)c1C: > 100 µM (inactive)
Nc1ncnc2c1ncn2C1(CO)OC(CO)C(O)C1O (stereo not drawn): > 100 µM (inactive)
Brc1ccc(C2CC(c3cccc4ccccc34)=Nc3ccccc3S2)cc1 (stereo not drawn): > 100 µM (inactive)
N#CC(/C(=N\NC(N)=S)C(=O)NC1C2CC3CC(C2)CC1C3)c1ccc(Cl)cc1 (stereo not drawn): > 100 µM (inactive)
CCOC(=O)NC(=O)c1cn(C2CCCCC2)c(=O)[nH]c1=O: 39.7 µM (inactive)

Please examine the following record next.
Report value only: GI50, LXFL 529, CCOC(=O)C(=O)Nc1nc2ccc(OC)cc2s1 > 100 µM (inactive)

Hey, just so you know, these numbers are from ChEMBL document CHEMBL1201862.
